test-description: MTT antiproliferative assay (neutral control)
reported-conditions: human, MRC-5 lung fibroblast cells

{"chem-smiles": "CC(=O)c1cc(C(=O)O[C@@H]2/C=C/C(=O)O[C@@H](O)CCC/C=C/[C@@H]3C[C@H](O)C[C@H]32)ccc1OCCN1CC(C(=O)O)=CCC1=O", "IC50 at 48 h": "> 100 nM"}

====

test-description: Serum biochemical markers after treatment of MNU-induced rats
Type: in vivo, Wistar rats
reported-conditions: serum, dose 50 mg/kg

{"molecule": "CC/C(=C(\\c1ccc(O)cc1)c1ccc(OCCN(C)C)cc1)c1ccccc1 [Compound 4-OHT., 4-hydroxytamoxifen, reference compound]", "unit-name": "A/L", "ALT (A/L)": 59.63}
{"molecule": "CNCCOc1ccc(C(=O)O[C@@H]2/C=C/C(=O)O[C@@H](O)CCC/C=C/[C@@H]3C[C@H](O)C[C@H]32)cc1C(C)=O [Compound 3DPQ-1]", "unit-name": "A/L", "ALT (A/L)": 53.43}
{"molecule": "O=C(c1ccc(OCCN2CCCCC2)cc1)c1c(-c2ccc(O)cc2)sc2cc(O)ccc12 [Ral., Raloxifene, reference compound]", "unit-name": "A/L", "ALT (A/L)": 52.46}
{"molecule": "CC(=O)c1cc(C(=O)OC2/C=C/C(=O)O[C@@H](O)CCC/C=C/[C@@H]3C[C@H](O)C[C@@H]23)ccc1OCCN1CCC=C(C(=O)O)C1 (stereo partly drawn) [Compound 3DPQ-3]", "unit-name": "A/L", "ALT (A/L)": 55.84}
{"molecule": "CC(=O)c1cc(C(=O)O[C@@H]2/C=C/C(=O)O[C@@H](O)CCC/C=C/[C@@H]3C[C@H](O)C[C@H]32)ccc1OCCN1CC(C(=O)O)=CCC1=O [Compound 3DPQ-9]", "unit-name": "A/L", "ALT (A/L)": 51.95}
{"molecule": "CC(=O)c1cc(C(=O)O[C@@H]2/C=C/C(=O)O[C@@H](O)CCC/C=C/[C@@H]3C[C@H](O)C[C@H]32)ccc1OCCN(C)C [Compound 3DPQ-2]", "unit-name": "A/L", "ALT (A/L)": 49.47}
